Assay: activity coefficient (dimensionless); of the first substance listed, at infinite dilution; xn = mol fraction of the nth substance listed
Conditions: 322.65 K; Liquid; Chromatography; x1 = 0
measurement.type: activity coefficient
Enter a number only.

Completed entries (count: 5):
>>> recorded_value("Cc1cccc(C)c1 [1,3-dimethylbenzene] + CCn1cc[n+](C)c1.N#CN=C=[N-]")
7.4
>>> recorded_value("Cc1ccccc1C [1,2-dimethylbenzene] + CCCCCC[N+](C)(C)C.O=S(=O)([N-]S(=O)(=O)C(F)(F)F)C(F)(F)F")
1.66
>>> recorded_value("CCCCCCCCCCC [undecane] + CCn1cc[n+](C)c1.N#CN=C=[N-]")
1030
>>> recorded_value("Cc1ccccc1C [1,2-dimethylbenzene] + CCn1cc[n+](C)c1.N#CN=C=[N-]")
5.86
>>> recorded_value("c1ccsc1 [thiophene] + CCCCCC[N+](C)(C)C.O=S(=O)([N-]S(=O)(=O)C(F)(F)F)C(F)(F)F")
0.921

# get_value(readout='activity coefficient', item= Cc1ccc(C)cc1 [1,4-dimethylbenzene] + CCn1cc[n+](C)c1.N#CN=C=[N-] )
6.93

# get_value(readout='activity coefficient', item= CCCC=O [butanal] + CCn1cc[n+](C)c1.N#CN=C=[N-] )
2.23

The reported measurements were obtained from the NIST ThermoML archive (doi:10.1021/je9003178).
